Molecular target: hIDO-1 (Homo sapiens)
Sequence (P14902 whole entry): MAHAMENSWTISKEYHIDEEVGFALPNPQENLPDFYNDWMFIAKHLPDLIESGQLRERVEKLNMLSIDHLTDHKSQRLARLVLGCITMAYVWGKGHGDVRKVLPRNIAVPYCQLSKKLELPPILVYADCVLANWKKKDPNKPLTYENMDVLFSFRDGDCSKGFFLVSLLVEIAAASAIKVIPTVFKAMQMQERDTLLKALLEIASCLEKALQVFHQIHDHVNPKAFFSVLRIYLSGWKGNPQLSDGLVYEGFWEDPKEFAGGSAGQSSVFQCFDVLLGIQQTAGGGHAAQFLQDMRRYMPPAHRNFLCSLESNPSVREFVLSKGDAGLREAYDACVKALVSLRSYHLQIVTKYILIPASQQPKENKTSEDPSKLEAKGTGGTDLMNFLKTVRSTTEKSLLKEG
Assay: hIDO-1 enzymatic assay
Assay type: biochemical
Details: rhIDO-1, L-tryptophan substrate, 37 °C 30 min; mean ± SE of two independent experiments
Listed next: entries and their corresponding pIC50.
Just so you know, pIC50 here is -log10 of the concentration in molar units; reply with that number alone.

// solved cases for pIC50 follow
# compound, endpoint_value
rows = [
    ("Cc1coc2c1C(=O)C(=O)c1c-2ccc2c1C=CC(O)C2(C)C (stereo not shown)", 5.51),
    ("Cc1coc2c1C(=O)C(=O)c1c-2ccc2c1C(O)CCC2(C)C (stereo not shown)", 5.55),
    ("Cc1coc2c1C(=O)C(=O)c1c-2ccc2c1C(OC(=O)c1ccoc1)CCC2(C)C (stereo not shown)", 5.34),
    ("Cc1coc2c1C(=O)C(=O)c1c-2ccc2c1C(OC(=O)C1CC1)CCC2(C)C (stereo not shown)", 5.15),
    ("CC(=O)OC1CCC(C)(C)c2ccc3c(c21)C(=O)C(=O)c1c(C)coc1-3 (stereo not shown)", 5.43),
]

# input compound: Cc1coc2c1C(=O)C(=O)c1c-2ccc2c1C(OC(=O)CO)CCC2(C)C (stereo not shown) ; wanted: its pIC50
5.56

Likewise for CCC(=O)OC1CCC(C)(C)c2ccc3c(c21)C(=O)C(=O)c1c(C)coc1-3 (stereo not shown) ?
5.33

* * *

Below, each entry is listed alongside its reported IC50.
Molecular target: UniProtKB P14902
Assay: Cell-based assay of IDO-1 activity in HEK 293 cells transfected with pcDNA3.1-hIDO-1
Parameters: expressed in transfected cells; host or cells: HEK 293
Conditions: HEK 293-hIDO-1 cells, 12-h incubation; mean ± SE of two independent experiments; read-out: Cellular IC50

Worked set:
# compound, IC50
measured = [
    ("Cc1coc2c1C(=O)C(=O)c1c-2ccc2c1C(=O)C=CC2(C)C", "> 10 µM"),
    ("Cc1coc2c1C(=O)C(=O)c1c-2ccc2c1C=CC(=O)C2(C)C", "> 10 µM"),
    ("Cc1coc2c1C(=O)C(=O)c1c-2ccc2c1C=CC(O)C2(C)C (centres unmarked)", "> 10 µM"),
    ("Cc1coc2c1C(=O)C(=O)c1c-2ccc2c1C=CCC2(C)C", "> 10 µM"),
]

Alright, here's another compound for you.
Any idea what its IC50 is? The compound is CC1(C)C(=O)C=Cc2c1ccc1c2C(=O)C(=O)c2c(CO)coc2-1
3.85 µM

* * *

Biological target: UniProtKB P14902
Assay: hIDO-1 enzymatic assay
Type: biochemical
Conditions: rhIDO-1, L-tryptophan substrate, 37 °C 30 min; mean ± SE of two independent experiments
measure_name: IC50 (µM)
Provide the reading as a plain figure in µM.

# molecule, assay_target, unit_name, IC50
measured = [
    ("Cc1coc2c1C(=O)C(=O)c1c-2ccc2c1C=CC(=O)C2(C)C", "UniProtKB P14902", "µM", 0.84),
    ("Cc1coc2c1C(=O)C(=O)c1c-2ccc2c1C(OC(=O)c1nccs1)CCC2(C)C (centres unmarked)", "UniProtKB P14902", "µM", 5.71),
    ("CCOC(=O)/C=C/C(=O)OC1CCC(C)(C)c2ccc3c(c21)C(=O)C(=O)c1c(C)coc1-3 (centres unmarked)", "UniProtKB P14902", "µM", 7.47),
    ("Cc1coc2c1C(=O)C(=O)c1c-2ccc2c1C(OC(=O)c1cnccn1)CCC2(C)C (centres unmarked)", "UniProtKB P14902", "µM", 4.96),
]

Shift focus to the following entry.
What IC50 value was documented for this molecule, CC1(C)C(=O)C=Cc2c1ccc1c2C(=O)C(=O)c2c(CO)coc2-1 ?
0.37
